# procedure-details: chemical genetic growth profiling, strain panel (AID 1159580);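 further: tested at 20 µM; growth read once vehicle control cultures reached saturation at 30 °C; 1 = growth at the plate median or of vehicle wells; lower values mean less growth of the strain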
# assay-context: S. cerevisiae deletion strains, growth OD, locus YOR231W, strain MKK1, hits give low values
In all, about 5,500 compounds went through this assay and about 2,000 (36%) were called active. About 18% were inconclusive and are not listed. This is one part of the list.
attribute-measured: normalized growth

Known normalized growth results, listed for orientation:
molecule	reading
CC[C@]1(O)CC2CN(CCc3c([nH]c4ccccc34)[C@@](C(=O)OC)(c3cc4c(cc3OC)N(C=O)[C@H]3[C@@](O)(C(=O)OC)[C@H](OC(C)=O)[C@]5(CC)C=CCN6CC[C@]43[C@@H]65)C2)C1 (some centres not stated)	0.964 (inactive)
CCOC(=O)CCc1cc(N=Cc2cc(Br)ccc2O)c(O)c(N=Cc2cc(Br)ccc2O)c1	0.657 (inactive)
CC(=O)Oc1cc(C)c2c(c1C=O)Oc1c(c(C)c(OC(C)=O)c3c1C(OC(C)=O)OC3=O)OC2=O (configuration not stated)	0.876 (inactive)

Give reported normalized growth value for `COc1cc(C(=O)Oc2c(Cl)cc(Cl)cc2C=Nc2cccc(C(F)(F)F)c2)cc(OC)c1OC` 0.465 (active)

Read the entry CC(C)C1=CC2=CCC3[C@](C)(CCC[C@]3(C)C(=O)O)C2CC1 (some centres not stated) and write its reported normalized growth. 0.859 (active)

Annotate the molecule C=CCN1CC[C@]23c4c5ccc(O)c4OC2C(=O)CC[C@@]3(O)[C@H]1C5 (some centres not stated) with its measured normalized growth. 0.994 (inactive)

State, in one line, measured normalized growth of CC(=O)Oc1cc(C)c2c(c1C(OC(C)=O)OC(C)=O)Oc1c(c(C)c(OC(C)=O)c3c1C(OC(C)=O)OC3=O)OC2=O (configuration not stated) 0.942 (inactive)

Specify reported normalized growth for the molecule shown: `Nc1cc(-c2ccc(OC(F)(F)F)cc2)nn1-c1ccc(Cl)c(Cl)c1` 0.349 (active)

State its normalized growth: `O=C1O[C@@H](CO)[C@H](O)[C@@H](O)[C@@H]1O` 0.968 (inactive)

Identify normalized growth associated with the molecule `CCOC(N)=O` 1 (inactive)

Give a short answer stating reported normalized growth for `NCc1ccc(S(N)(=O)=O)cc1` . 1.01 (inactive)

Give a short answer stating reported normalized growth for `C[C@H](COc1ccccc1)N[C@H](C)[C@H](O)c1ccc(O)cc1` . 0.948 (inactive)

====

# procedure-details: chemical genetic growth profiling, strain panel (AID 1159580)
# assay-context: S. cerevisiae deletion strains, growth OD, locus YIL066C, strain RNR3
Hit rate of the full screen: of about 5,500 compounds, about 2,000 (36%) were called active. Not shown: some 18% with an inconclusive outcome. No stated cut-off is given here; in the data, active means normalized growth mostly below about 0.91 (no sharp cut-off); inconclusive means no clear call, values can overlap the other calls; inactive means mostly above about 0.92. This is one part of the list.
Outcome field: choose from active, inactive

sample-smiles	group
C[C@@H]1C[C@@H]([C@H](O)CC2CC(=O)NC(=O)C2)C(=O)[C@@H](C)C1	active
NC(=O)N/N=C\c1ccc([N+](=O)[O-])o1	inactive

Assay result, entry `CC[C@]12CCCN3CCc4c(n(c5ccccc45)C(=O)C1)[C@@H]32` — outcome? inactive

====

# procedure-details: chemical genetic growth profiling, strain panel (AID 1159580)
# assay-context: S. cerevisiae deletion strains, growth OD, locus YNL175C, strain NOP13, hits give low values
Hit rate of the full screen: of about 5,500 compounds, about 2,000 (36%) were called active. About 18% were inconclusive and are not listed. Some of the results follow.
normalized growth listing for selected compounds.
Lab note: jot down the number only; don't add units.

Example results:
compound	normalized growth
CCN1C(=O)C=CC1=O	1.01
CCC(CO)NC(=O)C1C=C2c3cccc4c3c(cn4C)CC2N(C)C1 (stereo not given)	0.987
O=C(OCCN1CCOCC1)C1(c2ccccc2)CCCCC1	1.01
Oc1ccc(/C=C/c2cc(O)cc(O)c2)cc1	0.958

For CCOC(=O)C1=CC2(CC)CCCN3CCc4c(n1c1ccccc41)C32 (stereo not given) , write its normalized growth. 1.03

====

# procedure-details: chemical genetic growth profiling, strain panel (AID 1159580)
# assay-context: S. cerevisiae deletion strains, growth OD, locus YGL248W, strain PDE1
Among all 5,500 compounds or so, about 2,000 (36%) were called active. Not shown: some 18% with an inconclusive outcome. Cut-off read from the data, not from the text of the source: active = normalized growth mostly below about 0.91 (no sharp cut-off); inconclusive = no clear call, values can overlap the other calls; inactive = mostly above about 0.92. The list shows a part of the results.
Bench note: report the call from active, inactive

molecule	group
COc1ccc(-c2cc(C(F)F)nn2-c2ccc(S(N)(=O)=O)cc2)cc1F	inactive
O=C1N=C(O)CN1/N=C\c1ccc(-c2ccc([N+](=O)[O-])cc2)o1	inactive
O=C1OCCN1/N=C\c1ccc([N+](=O)[O-])o1	inactive
CC1(C)C2CC(=O)O[C@@]3(C)C4=CC(=O)O[C@@H](c5ccoc5)[C@]4(C)CCC3[C@@]2(C)C=C[C@H]1O (stereo not given in full)	inactive
CCCN(CCC)C(=O)C(CCC(=O)O)NC(=O)c1ccccc1 (stereo not given)	inactive
CC12CCC3C(CC=C4CC(O)CCC43C)C1CCC2=O (stereo not given)	active
CCCCC(CC)CN=C(N)NC(N)=NCCCCCCN=C(N)NC(N)=NCC(CC)CCCC (stereo not given)	active
NC(=O)N/N=C\c1ccc([N+](=O)[O-])o1	inactive
CC(=O)O[C@H]1CC[C@@]2(C)C(=CCC3C2CC[C@]2(C)C(=O)CCC32)C1 (stereo not given in full)	active

So what was the verdict on `COc1cc(C(=O)O)cc(OC)c1O` in this test? inactive

====

Documented normalized growth across a set of compounds
# procedure-details: chemical genetic growth profiling, strain panel (AID 1159580);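 further: tested at 20 µM; growth read once vehicle control cultures reached saturation at 30 °C; 1 = growth at the plate median or of vehicle wells; lower values mean less growth of the strain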
# assay-context: S. cerevisiae deletion strains, growth OD, locus YIL125W, strain kgd1, hits give low values
Out of some 5,500 compounds screened, about 2,000 (36%) were called active. Roughly 18% stayed inconclusive and do not appear here. The list shows a part of the results.
Lab note: record just the number, no unit beside it.

Answered examples (4):
compound	reading
COc1ccccc1N1CCNCC1	1.02
CC(=O)Oc1cc(C)c2c(c1C(OC(C)=O)OC(C)=O)Oc1c(c(C)c(OC(C)=O)c3c1C(OC(C)=O)OC3=O)OC2=O (stereo not given)	0.978
O=C(O)P(=O)(O)O	0.979
COc1cc(C)c2c(c1C=O)Oc1c(c(C)c(O)c3c1C(O)OC3=O)OC2=O (stereo not given)	0.984

Consider now this further compound.
# return recorded normalized growth for entry `CCOC(N)=O` 1

====

# procedure-details: chemical genetic growth profiling, strain panel (AID 1159580);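 further: tested at 20 µM; growth read once vehicle control cultures reached saturation at 30 °C; 1 = growth at the plate median or of vehicle wells; lower values mean less growth of the strain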
# assay-context: S. cerevisiae deletion strains, growth OD, locus YML124C, strain tub3, hits give low values
Hit rate of the full screen: of about 5,500 compounds, about 2,000 (36%) were called active. Inconclusive results (about 18%) are left out. Some of the results follow.
attribute-measured: normalized growth
Lab note: jot the number down without any unit.

Worked cases, answers included:
compound	normalized growth
CN=C1CN(O)C(c2ccccc2)=c2cc(Cl)ccc2=N1	0.984
CCn1cc(C(=O)O)c(=O)c2cnc(N3CCNCC3)nc21	0.985
CCn1cc(C(=O)O)c(=O)c2cc3c(cc21)OCO3	0.997
O=C(/C=C/c1ccc(O)c(O)c1)O[C@@H]1C[C@](O)(C(=O)O)C[C@@H](O)[C@H]1O	1.01
CC(C)C1=CC2=CCC3[C@](C)(CCC[C@]3(C)C(=O)O)C2CC1 (stereo partly drawn)	0.979
O=C(O)CCC(=O)c1ccc(-c2ccccc2)cc1	0.981
CCOC(=O)C1=C[C@]2(CC)CCCN3CCc4c(n1c1ccccc41)[C@@H]32	0.979
OCC(S)CS (stereo not drawn)	0.989

Return value of normalized growth for input CC(=O)O[C@H]1CC[C@@]2(C)C(=CCC3C2CC[C@@]2(C)C3CC[C@@H]2C(C)CCCC(C)C)C1 (stereo partly drawn) , no commentary. 1.02

Note down normalized growth recorded for CC[C@@]1(C2O[C@@H](C3O[C@@](O)(CC)[C@H](C)C[C@@H]3C)C[C@@H]2C)CC[C@H]([C@]2(C)CCC3(C[C@H](O)[C@@H](C)[C@@H]([C@H](C)[C@@H](OC)[C@H](C)C(=O)O)O3)O2)O1 (stereo partly drawn) 1.01

Name the recorded normalized growth of the compound listed here: `COc1cc(C(=O)O)cc(OC)c1O` 0.979

====

# procedure-details: chemical genetic growth profiling, strain panel (AID 1159580);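 further: tested at 20 µM; growth read once vehicle control cultures reached saturation at 30 °C; 1 = growth at the plate median or of vehicle wells; lower values mean less growth of the strain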
# assay-context: S. cerevisiae deletion strains, growth OD, locus YJL129C, strain trk1, hits give low values
Among all 5,500 compounds or so, about 2,000 (36%) were called active. Inconclusive results (about 18%) are left out. This is one part of the list.
# normalized growth values compiled below

Using the record for `COc1ccc(/C=C/C(=O)c2ccc(O)cc2O)cc1` , state its measured normalized growth. 0.386 (active)

Fill in reported normalized growth for this entry: `COc1ccc(/C=C/C(=O)O)cc1OC` 0.968 (inactive)

Specify reported normalized growth for the compound shown: CC1=CC(=O)CC(C)(C)C1(O)/C=C/C(C)=C\C(=O)O (stereo not drawn) 1.08 (inactive)
